# protocol_description: XTT proliferation assay (cellular toxicity)
# test_settings: human
Could you please report measured viability at 72 h, 100 µM for the items listed next?
Give just the number in %; leave the unit off.

*Q* Respond only with viability at 72 h, 100 µM recorded for O=c1oc2ccccc2c(O)c1N=Nc1ccc(-c2nnc(SCc3ccccc3)o2)cc1 [Compound 11d]
*A* 94

*Q* Provide one value: measured viability at 72 h, 100 µM of O=c1oc2ccccc2c(O)c1N=Nc1ccc(-c2nnc(SCc3ccc(Cl)cc3)o2)cc1 [Compound 11f]
*A* 100

*Q* Dear colleague, please send me the reported viability at 72 h, 100 µM for CSc1nnc(-c2ccc(N=Nc3c(O)c4ccccc4oc3=O)cc2)o1 [Compound 11a] when you can.
*A* 51

*Q* Check the records and state viability at 72 h, 100 µM for Cc1cn([C@H]2C[C@H](N=[N+]=[N-])[C@@H](CO)O2)c(=O)[nH]c1=O [AZT, Azidothymidine, reference compound]
*A* 92

*Q* Using the record for O=c1oc2ccccc2c(O)c1N=Nc1ccc(-c2nnc(SCc3ccccc3F)o2)cc1 [Compound 11g] , state its measured viability at 72 h, 100 µM.
*A* 74

*Q* Consider the molecule CCCSc1nnc(-c2ccc(N=Nc3c(O)c4ccccc4oc3=O)cc2)o1 [Compound 11c] and give its recorded viability at 72 h, 100 µM.
*A* 93

*Q* Fill in viability at 72 h, 100 µM for record CCSc1nnc(-c2ccc(N=Nc3c(O)c4ccccc4oc3=O)cc2)o1 [Compound 11b]
*A* 100

*Q* Give recorded viability at 72 h, 100 µM. O=c1oc2ccccc2c(O)c1N=Nc1ccc(-c2nnc(SCc3ccc(F)cc3)o2)cc1 [Compound 11h]
*A* 100

*Q* Please report the measured viability at 72 h, 100 µM for O=c1oc2ccccc2c(O)c1N=Nc1ccc(-c2nnc(SCc3ccccc3Cl)o2)cc1 [Compound 11e]
*A* 75
